Provide the reported melting point of each item.

> print(dat)
                                   molecule         result
1  CCC1CN(c2nc(-c3ccc(Br)cc3)cs2)C(=O)O1 (stereo not shown)  141 to 142 °C
2  CC[C@H]1COC(=O)N1c1nc(-c2ccc(Br)cc2)c(Cl)s1  137 to 139 °C
3     CC1(C)COC(=O)N1c1nc(-c2ccc(Br)cc2)cs1  165 to 167 °C
4   C[C@@H]1COC(=O)N1c1nc(-c2ccc(Br)cc2)cs1  197 to 199 °C
5  CCC1CN(c2nc(-c3ccc(C#N)cc3)cs2)C(=O)O1 (stereo not shown)  168 to 170 °C

Batch request: melting point per item, same order as input.
1. CC[C@H]1COC(=O)N1c1nc(-c2ccc(C#N)cc2)c(Cl)s1
2. CC[C@H]1COC(=O)N1c1nc(-c2ccc(Br)cc2)cs1
3. O=C1OCCCN1c1nc(-c2ccc(Br)cc2)cs1
4. CC1(C)COC(=O)N1c1nc(-c2cccc(C#N)c2)cs1

["157 to 159 °C", "138 to 140 °C", "225 to 227 °C", "181 to 183 °C"]

Batch request: melting point per item, same order as input.
1. CC(C)C1COC(=O)N1c1nc(-c2ccc(Br)cc2)cs1 (stereo not shown)
2. CC1CN(c2nc(-c3ccc(C#N)cc3)cs2)C(=O)O1 (stereo not shown)

1. 174 to 176 °C
2. 214 to 216 °C

====

Provide the reported melting point of each item.

> print(dat)
                                   molecule  recorded.metric         result
1  CC[C@@H]1COC(=O)N1c1nc(-c2ccc(C#N)cc2)cs1 [Example 10]    melting point  153 to 157 °C
2  N#Cc1ccc(-c2csc(N3C(=O)OC[C@@H]3c3ccccc3)n2)cc1 [Example 46]    melting point  242 to 244 °C
3  O=C1NCCN1c1nc(-c2ccc(Br)cc2)cs1 [Example 75]    melting point  230 to 233 °C

Batch request: melting point per item, same order as input.
1. CC1COC(=O)N1c1nc(-c2ccc(Br)cc2)cs1 (centres unmarked) [Example 50]
2. CCCC1COC(=O)N1c1nc(-c2ccc(Br)cc2)cs1 (centres unmarked) [Example 29]

189 to 190 °C
156 to 157 °C

====

recorded.metric: melting point

Here are 8 compounds together with their reported answers.
> print(dat)
                                   compound         result
1  CCCC1COC(=O)N1c1nc(-c2ccc(C#N)cc2)cs1 (centres unmarked)  132 to 134 °C
2  CC(C)C1COC(=O)N1c1nc(-c2ccc(C#N)cc2)cs1 (centres unmarked)  126 to 128 °C
3   C[C@@H]1COC(=O)N1c1nc(-c2cccc(Br)c2)cs1  126 to 128 °C
4  CC1CN(c2nc(-c3ccc(Br)cc3)cs2)C(=O)O1 (centres unmarked)  191 to 193 °C
5           O=C1OCCN1c1nc(-c2ccc(Br)cc2)cs1  197 to 199 °C
6  CC1(C)COC(=O)N(c2nc(-c3ccc(Br)cc3)cs2)C1  169 to 171 °C
7  N#Cc1ccc(-c2csc(N3C(=O)OC[C@H]3Cc3ccccc3)n2)cc1  174 to 176 °C
8  N#Cc1ccc(-c2csc(N3C(=O)OC[C@H]3CC(F)(F)F)n2)cc1  235 to 238 °C

Batch request: melting point per item, same order as input.
1. CC1(C)COC(=O)N1c1nc(-c2csc(C#N)c2)cs1
2. C[C@H]1COC(=O)N1c1nc(-c2ccc(Br)cc2)cs1
3. N#Cc1ccc(-c2csc(N3C(=O)OCC34CC4)n2)cc1
4. CCC[C@@H]1COC(=O)N1c1nc(-c2ccc(Br)cc2)cs1
5. O=C1OC[C@@H](c2ccccc2)N1c1nc(-c2ccc(Br)cc2)cs1
6. N#Cc1ccc(-c2csc(N3C(=O)OCC34CCCC4)n2)cc1

1: 249 to 251.5 °C; 2: 196 to 198 °C; 3: 219 to 221 °C; 4: 114 to 116 °C; 5: 218 to 220 °C; 6: 196 to 198 °C

Batch request: melting point per item, same order as input.
1. CC1(C)COC(=O)N1c1nc(-c2ccc(C#N)cc2)cs1
2. CC[C@@H]1COC(=O)N1c1nc(-c2ccc(Br)cc2)cs1
3. CCC1(CC)COC(=O)N1c1nc(-c2ccc(C#N)cc2)cs1
4. O=C1OCC(CC(F)(F)F)N1c1nc(-c2ccc(Br)cc2)cs1 (centres unmarked)

["183 to 185 °C", "134 to 135 °C", "145 to 147 °C", "163 to 165 °C"]

Batch request: melting point per item, same order as input.
1. O=C1OCC2(CC2)N1c1nc(-c2ccc(Br)cc2)cs1
2. O=C1OC[C@@H](CF)N1c1nc(-c2ccc(Br)cc2)cs1

["201 to 202 °C", "148 to 150 °C"]
